Data credit: PubChem BioAssay AID1259418

# assay_info: inhibitors of Toxoplasma growth in IFN-γ-primed HeLa – cell-based, ME49Luc, luciferase, 72 h, dose response (AID 1259418)
# test_context: T. gondii ME49Luc in IFN-y HeLa, active compounds read low, -100% = high-dose IFN-γ control wells; at 19.5 µM unless noted
The whole screen tested about 3,400 compounds, of which about 840 (25%) were called active. Another 11% or so got no clear call; they are omitted. These entries were drawn from the full list. Results with a measured potency or affinity are listed apart.
measurement_kind: max activity

Check out these entries, answers already filled in.
>>> reported("CCOc1ccc(CCNc2nc(-c3ccc(Cl)cc3)nc3ccccc23)cc1OCC")
"-12.8% [at 0.35 µM] (inactive)"
>>> reported("COc1ccccc1NC(=O)N1C[C@@H]2N[C@H](C1)C2c1ccc(/C=C/c2ccccc2)cc1 (stereo not given in full)")
"-98% (inactive)"

Notebook: Cc1ccc(-c2coc(-c3ccc(NC(=O)Nc4cccc(Cl)c4)cc3)n2)cc1 , max activity read as 13.6% [at 2.6 µM] (inactive)

Per the records, this compound ( CCc1ccccc1NC(=O)N1CCc2nc(-c3ccc(OC)c(OC)c3)sc2C1 ) has max activity equal to 6.34% (inactive)

Per the record, N#Cc1cccc(-c2ccc(C3[C@@H]4CN(C(=O)c5ccc6c(c5)OCO6)C[C@H]3N4)cc2)c1 (stereo not given in full) has max activity of 17.9% (inactive)

In plain terms, CCc1nc(OCC(=O)Nc2cc(OC)ccc2OC)c2ccccc2n1 has a documented max activity of -25% [at 2.6 µM] (inactive)

The compound C/C=C/c1ccc([C@H]2[C@H]3CN(C(=O)Nc4cccc(OC)c4)CC(=O)N3[C@H]2CO)cc1 showed max activity equal to -12% [at 21 µM] (inactive)

So, N#Cc1ccc(-c2ccc([C@@H]3[C@H]4CNC[C@@H]3N4Cc3ccc4c(c3)OCO4)cc2)cc1 ? Its max activity was 28.6% [at 10 µM] (inactive)

// field: max activity; key: CC(C)NC(=O)N1CCC2(CC1)OCCN(CCO)c1ccccc12 ; value = 20.9% (inactive)

The compound listed as Cc1cccc(-n2ncc3c(NC4CCCCCCCCCCC4)ncnc32)c1 has a reported max activity of 22.5% [at 10 µM] (inactive)
